Test system: Setaria faberi (SETFA)
procedure_details: Pre-emergence herbicidal activity, glasshouse pot test
Type: in vivo
cond: Setaria faberi, 480 h, rate 500 g/ha, evaluated after 20 days, read-out: Pre-emergence activity, SETFA (100=total damage to plant; 0=no damage to plant)
Form field: pest or weed control at 500 g/ha (one value per entry).
The reply should read as a number followed by its unit.

# example entries with known answers
CCc1cc(C)cc(CC)c1C1=C(O)CC2(CC[S+]([O-])CC2)CC1=O (centres unmarked)    70%
COC1CCC2(CC1)CC(=O)C(c1cc(-c3ccc(Cl)cc3)ccc1C)=C(O)C2 (centres unmarked)    70%
CCc1cc(C)cc(CC)c1C1=C(OC(=O)COC)CC2(CCOCC2)CC1=O    100%
CCc1cc(C)cc(CC)c1C1=C(OC(=O)C(C)(C)C)CC2(CCCSC2)CC1=O (centres unmarked)    70%
CCc1cc(C)cc(CC)c1C1=C(O)CC(CC(C)S(C)(=O)=O)CC1=O (centres unmarked)    100%

Given the entry CCCS(=O)(=O)OC1=C(c2c(CC)cc(C)cc2CC)C(=O)CC2(CCOCC2)C1 , report its measured pest or weed control at 500 g/ha.
60%

Which pest or weed control at 500 g/ha is reported for this compound? Cc1cc(C)c(C2=C(O)CC3(CCOCC3)CC2=O)c(C)c1
70%

# query: pest or weed control at 500 g/ha of entry CCSC(C)CC1CC(=O)C(c2c(CC)cc(C)cc2CC)=C(O)C1 (centres unmarked)
100%

====

Tested on: Setaria faberi (SETFA)
procedure_details: Pre-emergence herbicidal activity, glasshouse pot test
Type: in vivo
cond: Setaria faberi, 480 h, rate 500 g/ha, evaluated after 20 days, read-out: Pre-emergence activity, SETFA (100=total damage to plant; 0=no damage to plant)
pest or weed control at 500 g/ha values by entry
Number only, in %; omit the unit.

// worked examples, pest or weed control at 500 g/ha included
CCc1cc(C)cc(CC)c1C1=C(O)CC(CC(C)S(=O)(=O)C(C)C)CC1=O (centres unmarked)    80
CCc1cc(C)cc(CC)c1C1=C(OC(=O)C(C)(C)C)CC2(CCOCC2)CC1=O    100
Cc1cc(C)c(C2=C(O)CC(CC(C)SC(C)C)CC2=O)c(C)c1 (centres unmarked)    70
C#CCOC(=O)OC1=C(c2c(CC)cc(C)cc2CC)C(=O)CC2(CCOCC2)C1    100
CCc1cc(C)cc(CC)c1C1=C(O)CC2(CCSCC2)CC1=O    90

pest or weed control at 500 g/ha for CCCS(=O)(=O)C(C)CC1CC(=O)C(c2c(C)cc(C)cc2C)=C(O)C1 (centres unmarked) ?
60

I am curious: what pest or weed control at 500 g/ha value has been reported for CCC(=O)OC1=C(c2c(CC)cc(C)cc2CC)C(=O)CC2(CCOCC2)C1 [Compound P2] ?
100

Return reported pest or weed control at 500 g/ha; argument: CCc1cc(C)cc(CC)c1C1=C(O)CC(CC(C)SC(C)C)CC1=O (centres unmarked)
60

====

Entries annotated with measured pest or weed control at 500 g/ha
System: Lolium perenne (LOLPE)
procedure_details: Post-emergence herbicidal activity, glasshouse pot test
Assay type: in vivo
cond: Lolium perenne, rate 500 g/ha, evaluated after 14 or 15 days, read-out: Post-emergence activity, LOLPE (100=total damage to plant; 0=no damage to plant)
Quick reminder: number only, in %, skip the unit.

Answered cases to consult:
CCc1cc(C)cc(CC)c1C1=C(O)CC(CC(C)SC(C)C)CC1=O (stereo not drawn)    90
CCc1cc(C)cc(CC)c1C1=C(O)CC(C2CCCO2)CC1=O (stereo not drawn)    100
Cc1ccc(-c2ccc(Cl)cc2)cc1C1=C(O)CC2(CCOCC2)CC1=O    80
CCCS(=O)(=O)C(C)CC1CC(=O)C(c2c(CC)cc(C)cc2CC)=C(O)C1 (stereo not drawn)    90
CCc1cc(C)cc(CC)c1C1=C(O)CC(C(C)(C)SC)CC1=O (stereo not drawn)    100
CCc1cc(CC)c(C2=C(O)CC3(CCOCC3)CC2=O)c(CC)c1    80
Cc1cc(C)c(C2=C(O)CC3(CCS(=O)(=O)CC3)CC2=O)c(C)c1    70
CCc1cc(C)cc(CC)c1C1=C(O)CC(CC[S+](C)[O-])CC1=O (stereo not drawn)    100

// moving on: another record for pest or weed control at 500 g/ha
Look at this molecule and give its reported pest or weed control at 500 g/ha. CCc1cc(C)cc(CC)c1C1=C(OC(=O)C(C)(C)C)CC2(CCOCC2)CC1=O
100

====

System: Alopecurus myosuroides (ALOMY)
procedure_details: Post-emergence herbicidal activity, glasshouse pot test
Assay type: in vivo
cond: Alopecurus myosuroides, rate 500 g/ha, evaluated after 14 or 15 days, read-out: Post-emergence activity, ALOMY (100=total damage to plant; 0=no damage to plant)
observed_property: pest or weed control at 500 g/ha (%)
Number in %, nothing else.

CCc1cc(C)cc(CC)c1C1=C(O)CC(CC(C)SC)CC1=O (centres unmarked)    0

Query: pest or weed control at 500 g/ha; subject: CSC(C)CC1CC(=O)C(c2c(C)cc(C)cc2C)=C(O)C1 (centres unmarked)
60

Can you look up the measured pest or weed control at 500 g/ha of Cc1cc(C)c(C2=C(O)CC3(CCS(=O)(=O)CC3)CC2=O)c(C)c1 for me?
70

====

pest or weed control at 500 g/ha listing for selected compounds.
Test system: Setaria faberi (SETFA)
procedure_details: Pre-emergence herbicidal activity, glasshouse pot test
Assay type: in vivo
cond: Setaria faberi, 480 h, rate 500 g/ha, evaluated after 20 days, read-out: Pre-emergence activity, SETFA (100=total damage to plant; 0=no damage to plant)
Respond numerically; units are % and should not be typed.

Record excerpt, results attached:
Cc1cc(C)c(C2=C(O)CC3(CCSCC3)CC2=O)c(C)c1    10
CCc1cc(C)cc(CC)c1C1=C(O)CC(CC(C)S(=O)(=O)CC)CC1=O (centres unmarked)    100
CCc1cc(C)cc(C)c1C1=C(O)CC(CC(C)SC)CC1=O (centres unmarked)    100
CCc1cc(C)cc(CC)c1C1=C(O)CC(C(C)(C)SC)CC1=O (centres unmarked)    100

For Setaria faberi (SETFA), provide pest or weed control at 500 g/ha of CCOC(=O)OC1=C(c2c(CC)cc(C)cc2CC)C(=O)CC2(CCOCC2)C1 please.
100

Missing value: pest or weed control at 500 g/ha, Setaria faberi (SETFA), entry CCc1cc(C)cc(CC)c1C1=C(OS(=O)(=O)CC)CC2(CCOCC2)CC1=O . Fill in?
70

Query pest or weed control at 500 g/ha on Setaria faberi (SETFA) for C=CCOC(=O)OC1=C(c2c(CC)cc(C)cc2CC)C(=O)CC2(CCOCC2)C1
100

====

Tested on: Setaria faberi (SETFA)
procedure_details: Pre-emergence herbicidal activity, glasshouse pot test
Assay type: in vivo
cond: Setaria faberi, 480 h, rate 500 g/ha, evaluated after 20 days, read-out: Pre-emergence activity, SETFA (100=total damage to plant; 0=no damage to plant)
observed_property: pest or weed control at 500 g/ha (%)
Give the number; % is assumed, so skip it.

Solved cases below.
CCc1cc(C)cc(CC)c1C1=C(OC(=O)OCc2ccccc2)CC2(CCOCC2)CC1=O    100
CCCC(CC)C(=O)OC1=C(c2c(CC)cc(C)cc2CC)C(=O)CC2(CCOCC2)C1 (centres unmarked)    70
CCc1cc(C)cc(CC)c1C1=C(O)CC(CCS(C)(=O)=O)CC1=O (centres unmarked)    100

Which pest or weed control at 500 g/ha value belongs to CCc1cc(C)cc(CC)c1C1=C(O)CC(CC(C)SC)CC1=O (centres unmarked) ?
100

Can you look up the measured pest or weed control at 500 g/ha of CCc1cc(C)cc(CC)c1C1=C(O)CC(C2(SC)CC2)CC1=O (centres unmarked) for me?
100

May I ask what pest or weed control at 500 g/ha has been recorded for CCc1cc(C)cc(CC)c1C1=C(OC(=O)C(C)C)CC2(CCOCC2)CC1=O ?
100

Return reported pest or weed control at 500 g/ha; argument: CCc1cc(C)cc(CC)c1C1=C(OS(=O)(=O)Cc2ccccc2)CC2(CCOCC2)CC1=O
70

# query: pest or weed control at 500 g/ha of entry CCc1cc(C)cc(CC)c1C1=C(OC(=O)C(C)(C)C)CC(CC(C)SC(C)C)CC1=O (centres unmarked)
90

====

Measured pest or weed control at 500 g/ha, listed per entry for reference.
Test system: Alopecurus myosuroides (ALOMY)
procedure_details: Post-emergence herbicidal activity, glasshouse pot test
Format: in vivo
cond: Alopecurus myosuroides, rate 500 g/ha, evaluated after 14 or 15 days, read-out: Post-emergence activity, ALOMY (100=total damage to plant; 0=no damage to plant)
Procedure: Monocotyledonous and dicotyledonous test plants were sown in sterilised standard soil in pots. […] The test plants were then grown in a greenhouse under optimum conditions until, 14 or 15 days later for post-emergence and 20 days for pre-emergence, the test was evaluated (100=total damage to plant; 0=no damage to plant). […]
// note: answer is a bare numeric in %

# count of solved cases: 3
Cc1cc(C)c(C2=C(O)CC3(CCOCC3)CC2=O)c(C)c1 [Compound T26]    60
CCc1cc(C)cc(CC)c1C1=C(O)CC(CCSC)CC1=O (centres unmarked) [Compound T16]    100
CCSC(C)CC1CC(=O)C(c2c(C)cc(C)cc2C)=C(O)C1 (centres unmarked) [Compound T9]    50

For the molecule CCc1cc(C)cc(CC)c1C1=C(O)CC(COCOC)CC1=O (centres unmarked) [Compound T23] , what pest or weed control at 500 g/ha is on record?
90

Requested read-out: pest or weed control at 500 g/ha. Entry: CCCSC(C)CC1CC(=O)C(c2c(C)cc(C)cc2C)=C(O)C1 (centres unmarked) [Compound T35]
90

Query: pest or weed control at 500 g/ha; subject: Cc1cc(C)c(C2=C(O)CC3(CCSCC3)CC2=O)c(C)c1 [Compound T6]
20
